Below, each of the compounds is paired with its reported Ki value.
target: UniProt O43570
Sequence (O43570 whole entry): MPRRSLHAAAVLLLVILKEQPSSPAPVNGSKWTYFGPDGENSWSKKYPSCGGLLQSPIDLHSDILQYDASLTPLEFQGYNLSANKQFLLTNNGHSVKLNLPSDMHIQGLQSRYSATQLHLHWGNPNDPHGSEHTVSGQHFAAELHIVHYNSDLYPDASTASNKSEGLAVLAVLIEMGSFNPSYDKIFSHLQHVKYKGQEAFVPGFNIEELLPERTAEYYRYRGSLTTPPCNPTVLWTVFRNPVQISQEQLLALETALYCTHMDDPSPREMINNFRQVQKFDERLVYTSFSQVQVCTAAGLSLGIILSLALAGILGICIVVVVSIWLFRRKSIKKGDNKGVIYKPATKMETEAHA
Output spec: scalar in nM, unitless text.

Some compounds with recorded Ki:
NS(=O)(=O)c1ccc(CCNS(=O)(=O)[C@@H]2O[C@H](CO)[C@@H](O[C@H]3O[C@H](CO)[C@@H](O)[C@H](O)[C@H]3O)[C@H](O)[C@H]2O)cc1
7.3
NS(=O)(=O)c1ccc(CCNS(=O)(=O)[C@@H]2O[C@H](C(=O)O)[C@H](O)[C@H](O)[C@H]2O)cc1
9.5
CC(=O)OC[C@H]1O[C@@H](S(=O)(=O)NCc2ccc(S(N)(=O)=O)cc2)[C@H](OC(C)=O)[C@@H](OC(C)=O)[C@@H]1OC(C)=O
9.3
NS(=O)(=O)c1ccc(CNS(=O)(=O)[C@@H]2O[C@H](CO)[C@@H](O)[C@H](O)[C@H]2O)cc1
8.3
NS(=O)(=O)c1ccc(CCNS(=O)(=O)[C@@H]2O[C@H](CO)[C@@H](O[C@@H]3O[C@H](CO)[C@H](O)[C@H](O)[C@H]3O)[C@H](O)[C@H]2O)cc1
9.1

query: Tell me the measured Ki of "CC(=O)OC[C@H]1O[C@@H](S(=O)(=O)NCCc2ccc(S(N)(=O)=O)cc2)[C@H](OC(C)=O)[C@@H](OC(C)=O)[C@@H]1O[C@H]1O[C@H](COC(C)=O)[C@@H](OC(C)=O)[C@H](OC(C)=O)[C@H]1OC(C)=O" , please.
result: 8.8

query: Consider next the compound "CC(=O)OC[C@H]1O[C@@H](S(=O)(=O)NCc2ccc(S(N)(=O)=O)cc2)[C@H](OC(C)=O)[C@@H](OC(C)=O)[C@H]1OC(C)=O" in the same way.
result: 9.9

query: Consider next the compound "CC(=O)OC[C@H]1O[C@@H](O[C@H]2[C@H](OC(C)=O)[C@@H](OC(C)=O)[C@H](SNCc3ccc(S(N)(=O)=O)cc3)O[C@@H]2COC(C)=O)[C@H](OC(C)=O)[C@@H](OC(C)=O)[C@H]1OC(C)=O" in the same way.
result: 9.8

query: Consider next the compound "COC(=O)[C@H]1O[C@@H](SNCc2ccc(S(N)(=O)=O)cc2)[C@H](OC(C)=O)[C@@H](OC(C)=O)[C@H]1OC(C)=O" in the same way.
result: 15.6

---

As a worked illustration, we turn to Ki data collected for UniProt:P00915.
Sequence (P00915 whole entry): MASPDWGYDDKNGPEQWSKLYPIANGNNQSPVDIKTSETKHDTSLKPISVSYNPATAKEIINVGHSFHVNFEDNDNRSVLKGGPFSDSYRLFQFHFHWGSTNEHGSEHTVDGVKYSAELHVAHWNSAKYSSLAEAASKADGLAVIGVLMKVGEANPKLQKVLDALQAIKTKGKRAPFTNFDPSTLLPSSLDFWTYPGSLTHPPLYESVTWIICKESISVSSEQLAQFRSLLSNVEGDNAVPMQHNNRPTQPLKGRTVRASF
Output spec: scalar in µM, unitless text.

Some molecules with recorded Ki:
CC(=O)OC[C@H]1O[C@@H](SNCCc2ccc(S(N)(=O)=O)cc2)[C@H](OC(C)=O)[C@@H](OC(C)=O)[C@@H]1OC(C)=O
3.89
COC(=O)[C@H]1O[C@@H](S(=O)(=O)NCc2ccc(S(N)(=O)=O)cc2)[C@H](OC(C)=O)[C@@H](OC(C)=O)[C@H]1OC(C)=O
2.4
NS(=O)(=O)c1ccc(CNS(=O)(=O)[C@@H]2O[C@H](CO)[C@@H](O)[C@H](O)[C@H]2O)cc1
0.102

As a next step, examine the molecule that follows.
query: Tell me the measured Ki of "NS(=O)(=O)c1ccc(CCNS(=O)(=O)[C@@H]2O[C@H](C(=O)O)[C@H](O)[C@H](O)[C@H]2O)cc1" , please.
result: 0.097
